- assay-target: HMGCR (TM1-8)-GFP (Cricetulus griseus, UniProt P00347)
- Sequence (P00347 1-346): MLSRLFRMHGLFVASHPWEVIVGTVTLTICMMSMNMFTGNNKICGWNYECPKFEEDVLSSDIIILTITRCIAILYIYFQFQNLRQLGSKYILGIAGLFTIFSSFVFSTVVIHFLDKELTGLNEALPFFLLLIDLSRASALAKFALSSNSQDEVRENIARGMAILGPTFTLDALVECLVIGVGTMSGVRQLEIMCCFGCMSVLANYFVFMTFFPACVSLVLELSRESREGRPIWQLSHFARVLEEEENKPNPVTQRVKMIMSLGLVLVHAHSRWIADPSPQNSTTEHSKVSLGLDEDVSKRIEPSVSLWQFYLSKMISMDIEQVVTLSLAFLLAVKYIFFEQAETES
- protocol-summary: HMGCR (TM1-8)-GFP fluorescent assay (high-content imaging) in CHG cells
- condition-set: read-out: Mean (HMGCR (TM1-8)-GFP signal relative to 0 μM = 100)

compound | assay-target | remaining activity at 0.313 µM, %
CC(O)CC[C@@H](C)C1CCC2C3C(CC[C@@]21C)[C@@]1(C)CC[C@H](O)C(C)(C)C1=C[C@@H]3O (stereo partly drawn) [Compound 63] | HMGCR (TM1-8)-GFP (Cricetulus griseus, UniProt P00347) | 97.9
C=CCC(O)CCCCC[C@@H](C)C1CCC2C3C(CC[C@@]21C)[C@@]1(C)CC[C@H](O)C(C)(C)C1=C[C@@H]3O (stereo partly drawn) [Compound 126] | HMGCR (TM1-8)-GFP (Cricetulus griseus, UniProt P00347) | 72.3
COC(=O)CCC[C@@H](C)C1CCC2C3C(CC[C@@]21C)[C@@]1(C)CC[C@H](O)C(C)(C)C1=C[C@@H]3O (stereo partly drawn) [Compound 72] | HMGCR (TM1-8)-GFP (Cricetulus griseus, UniProt P00347) | 104
